Tested on: B. subtilis ATCC 11774
run_description: Tetrazolium (MTT) microplate assay of minimum inhibitory concentration
Format: cell-based
measurement_conditions: Bacillus subtilis, ATCC11774; 300 µg/mL
Procedure: All the synthesized compounds were screened for antibacterial activities using minimum inhibitory concentrations (MIC) and zone of inhibitions against Gram (+)and Gram (−) bacterial strains. […] The minimum inhibitory concentrations of test microorganisms and reference material were determined using the tetrazolium microplate assay method. […]

{"line_notation": "CC(C)=CCOc1ccc(/C=N/NC(=O)c2ccncc2)cc1", "inhibition at 300 µg/mL": "68%"}
{"line_notation": "CC(C)(C)OC(=O)COc1ccc(/C=N/NC(=O)c2ccncc2)cc1", "inhibition at 300 µg/mL": "60%"}
{"line_notation": "CCCOc1ccc(/C=N/NC(=O)c2ccncc2)cc1OC", "inhibition at 300 µg/mL": "73%"}
{"line_notation": "COc1cc(/C=N/NC(=O)c2ccncc2)ccc1OCC(=O)OC(C)(C)C", "inhibition at 300 µg/mL": "60%"}
{"line_notation": "COc1cc(/C=N/NC(=O)c2ccncc2)ccc1OCC=C(C)C", "inhibition at 300 µg/mL": "74%"}
{"line_notation": "CCCOc1ccc(/C=N/NC(=O)c2ccncc2)cc1", "inhibition at 300 µg/mL": "70%"}
